- System: A2780 cells
- assayProtocol: MTT cell viability assay
- Format: cell-based
- assayConditions: Homo sapiens, 72 h, n ≥ 3 in triplicate, mean ± SD
# IC50 per record follows
Answer format: numeric, nM implied, no suffix.

Look over these answered cases.
{"columns": ["compound", "valueKind", "endpointUnit", "reportedMeasurement"],
 "data": [
  ["C[C@H]1[C@@H](O)O[C@@H]2O[C@@]3(C)CC[C@H]4[C@H](C)CC[C@@H]1[C@@]24OO3 [DHA, dihydroartemisinin]", "IC50", "nM", 970],
  ["C[C@H]1[C@H](OCc2ccc(C(=O)NO)cc2)O[C@@H]2O[C@@]3(C)CC[C@H]4[C@H](C)CC[C@@H]1[C@@]24OO3 [Compound 7d]", "IC50", "nM", 1310]
]}

In the following, a different compound is considered.
Challenge: Report IC50 under test system A2780 cells for C[C@H]1[C@@H](Sc2ccc(CC(=O)NO)cc2)O[C@@H]2O[C@@]3(C)CC[C@H]4[C@H](C)CC[C@@H]1[C@@]24OO3 [(α)-7e] .
Response given: 1830
